Assay: 3T3 Neutral Red uptake cytotoxicity and phototoxicity assay
Conditions: mouse, Viability (%), –Irr, 0.0316 μg/mL
Protocol: The 3T3 Neutral Red uptake assay was used to evaluate the phototoxicity of BondLynx. The NRU assay makes use of Neutral Red dye, a weak cationic dye that penetrates the cell membrane by non-ionic passive diffusion and accumulates in lysosomes. Cytotoxicity of the test material is evaluated by measuring the OD540 to assess the uptake of Neutral Red dye.[28],[29] […]
measured metric: viability at 82 min, 0.0316 μg/mL (%)

>>> print(df.to_string())
           query_smiles                    measured_metric  measured
0  c1ccc2cc3ccccc3cc2c1  viability at 82 min, 0.0316 μg/mL       102
